Values compiled from patent US20240294611A1.

# testedTarget: soluble SARS-CoV-2 spike protein variant 4PDS (SARS-CoV-2, UniProt P0DTC2 14-1208)
Can you tell me Fold improvement over WT/WT for the items I'm about to list?
One number for each entry, in fold.

>  <binder>
combination of AM3A3-3 heavy chain with unmodified hu3A3 (WT; ven3A3) light chain (antibody, V domains shown) VH: QVQLVQSGADVLKPGASVKLSCKASGFNIKNTYIHWLKQAPGQRLEWIGRIGPAIGNTIYAPKFQGKATITTDTSASTAYLELSSLRSEDTAVYYCARYYGSSYYYLDYWGQGTTVTVSS VL: DIVMTQSPLSVPVTPGEPVSISCRSSKSLLHSNGNTYLYWFLQKPGQSPQLLIYRMSNLASGVPDRFSGSGSGTAFTLKISRVEAEDVGVYYCMQYLEYPLTFGAGTKLEIK

>  <readoutUnit>
fold

>  <Fold improvement over WT/WT>
11.6

$$$$

Would you mind listing Fold improvement over WT/WT for each of the following binders?
1. humanized 3A3 with ven3A3VH and ven3A3VL (antibody, V domains shown) VH: QVQLVQSGAEVLKPGASVKLSCKASGFNIKDTYIHWLKQAPGQRLEWIGRIGPAIGNTIYAPKFQGKATITTDTSASTAYLELSSLRSEDTAVYYCARYYGSSYYYFDYWGQGTTVTVSS VL: DIVMTQSPLSVPVTPGEPVSISCRSSKSLLHSNGNTYLYWFLQKPGQSPQLLIYRMSNLASGVPDRFSGSGSGTAFTLKISRVEAEDVGVYYCMQYLEYPLTFGAGTKLEIK
2. combination of AM3A3-5 heavy chain with AM3A3-3 light chain (antibody, V domains shown) VH: QVQLVQSGAEVLKPGASVKLSCKASGFNIKDTYIHWLKQAPGQRLEWIGRIGPAIGNTIYAPKFQGKATITTDTSASTAYLELSSLRSEDTAVYYCARYYGYAYYYFDYWGQGTTVTVSS VL: DIVMTQSPLSVPVTPGEPVSISCRSSKSLHHSNGNTYLYWFLQKPGQSPQLLIYRMSNLASGVPDRFSGSGNGTAFTLKISRVEAEDVGVYYCMQYLEYPLTFDAGTKLEIK

Data returned:
[1, 4.3]
